# Assay Target: T1, human MET ECD (human, UniProt P08581 25-932)
# T1 construct: range 1-932; recombinant ECD made by the applicants; the stated range begins at residue 1, so it includes the signal peptide of the entry; also called hMET; hMET ECD
# T1 sequence (P08581 25-932 limits assumed, form in doubt): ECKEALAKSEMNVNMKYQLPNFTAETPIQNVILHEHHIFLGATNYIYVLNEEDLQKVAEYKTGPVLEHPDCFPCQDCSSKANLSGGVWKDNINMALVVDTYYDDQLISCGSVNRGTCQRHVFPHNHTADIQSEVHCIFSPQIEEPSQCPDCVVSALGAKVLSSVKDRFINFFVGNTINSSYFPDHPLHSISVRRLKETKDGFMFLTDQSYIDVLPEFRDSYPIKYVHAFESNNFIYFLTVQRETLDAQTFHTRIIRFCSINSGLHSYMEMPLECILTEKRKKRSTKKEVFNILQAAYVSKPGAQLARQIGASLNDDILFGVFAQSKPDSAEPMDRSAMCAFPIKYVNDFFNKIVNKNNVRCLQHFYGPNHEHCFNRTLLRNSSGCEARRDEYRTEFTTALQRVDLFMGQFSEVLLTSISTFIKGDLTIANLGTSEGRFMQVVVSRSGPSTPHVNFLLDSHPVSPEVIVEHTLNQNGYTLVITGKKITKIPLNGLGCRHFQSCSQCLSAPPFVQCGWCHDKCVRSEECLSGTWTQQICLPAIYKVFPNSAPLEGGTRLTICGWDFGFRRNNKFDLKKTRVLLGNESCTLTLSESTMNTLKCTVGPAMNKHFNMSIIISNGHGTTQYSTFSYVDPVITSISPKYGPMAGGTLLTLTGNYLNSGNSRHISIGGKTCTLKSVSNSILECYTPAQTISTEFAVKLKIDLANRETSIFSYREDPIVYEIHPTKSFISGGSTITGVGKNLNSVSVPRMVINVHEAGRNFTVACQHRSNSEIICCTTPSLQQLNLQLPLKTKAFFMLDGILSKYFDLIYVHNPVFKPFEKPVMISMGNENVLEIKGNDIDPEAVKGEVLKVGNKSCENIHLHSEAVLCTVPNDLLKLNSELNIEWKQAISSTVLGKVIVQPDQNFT
# Method: ELISA, MET ECD in solid phase, crude periplasmic Fab
Assay Metric: OD450 (AU)
Number in AU, nothing else.

71D4 Fab (Fab, V domains shown, llama Fab (VH-CH1 and lambda VL-CL) with MYC flag, crude periplasmic extract) VH: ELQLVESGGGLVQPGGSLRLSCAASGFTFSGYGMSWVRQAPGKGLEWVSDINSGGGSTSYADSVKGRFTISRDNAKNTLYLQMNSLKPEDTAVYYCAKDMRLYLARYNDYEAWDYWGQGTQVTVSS VL: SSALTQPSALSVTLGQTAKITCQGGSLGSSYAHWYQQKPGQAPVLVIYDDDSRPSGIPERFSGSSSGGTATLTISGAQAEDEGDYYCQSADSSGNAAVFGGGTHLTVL : 0.311

Query 71G12 Fab (Fab, V domains shown, llama Fab (VH-CH1 and kappa VL-CL) with MYC flag, crude periplasmic extract) VH: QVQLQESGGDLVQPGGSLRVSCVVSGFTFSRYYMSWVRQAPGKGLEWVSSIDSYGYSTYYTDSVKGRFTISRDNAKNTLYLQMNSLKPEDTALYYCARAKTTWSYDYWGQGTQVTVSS VL: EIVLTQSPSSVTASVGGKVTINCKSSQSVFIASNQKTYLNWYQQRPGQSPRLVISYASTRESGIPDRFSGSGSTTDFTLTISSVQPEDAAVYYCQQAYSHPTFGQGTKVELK yields OD450 of 0.45

Query 74C8 Fab (Fab, V domains shown, llama Fab (VH-CH1 and lambda VL-CL) with MYC flag, crude periplasmic extract) VH: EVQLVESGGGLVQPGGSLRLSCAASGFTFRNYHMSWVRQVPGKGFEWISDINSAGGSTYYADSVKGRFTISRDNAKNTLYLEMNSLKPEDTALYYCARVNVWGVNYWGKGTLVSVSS VL: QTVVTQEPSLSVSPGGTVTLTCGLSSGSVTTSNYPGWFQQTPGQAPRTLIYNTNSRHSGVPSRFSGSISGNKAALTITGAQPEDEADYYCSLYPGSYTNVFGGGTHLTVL yields OD450 of 2.98

Query 71G2 Fab (Fab, V domains shown, llama Fab (VH-CH1 and lambda VL-CL) with MYC flag, crude periplasmic extract) VH: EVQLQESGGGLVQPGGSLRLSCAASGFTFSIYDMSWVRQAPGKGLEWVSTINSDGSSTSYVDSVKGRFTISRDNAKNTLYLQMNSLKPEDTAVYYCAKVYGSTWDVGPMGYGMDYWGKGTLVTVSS VL: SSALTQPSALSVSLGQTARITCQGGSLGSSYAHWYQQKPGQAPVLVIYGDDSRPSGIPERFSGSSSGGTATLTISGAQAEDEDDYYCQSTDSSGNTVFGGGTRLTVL yields OD450 of 0.561

Query 71A3 Fab (Fab, V domains shown, llama Fab (VH-CH1 and lambda VL-CL) with MYC flag, crude periplasmic extract) VH: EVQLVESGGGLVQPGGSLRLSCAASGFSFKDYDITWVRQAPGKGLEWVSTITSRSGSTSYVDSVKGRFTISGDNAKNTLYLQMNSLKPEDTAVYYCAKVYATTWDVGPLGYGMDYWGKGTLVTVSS VL: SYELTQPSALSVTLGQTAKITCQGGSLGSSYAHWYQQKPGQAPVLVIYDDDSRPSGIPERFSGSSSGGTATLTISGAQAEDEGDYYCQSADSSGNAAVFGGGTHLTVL yields OD450 of 0.581

Query 71G3 Fab (Fab, V domains shown, llama Fab (VH-CH1 and lambda VL-CL) with MYC flag, crude periplasmic extract) VH: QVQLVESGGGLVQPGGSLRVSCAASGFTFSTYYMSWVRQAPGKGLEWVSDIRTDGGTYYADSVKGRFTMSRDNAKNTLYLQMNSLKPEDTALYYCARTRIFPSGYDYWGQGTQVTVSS VL: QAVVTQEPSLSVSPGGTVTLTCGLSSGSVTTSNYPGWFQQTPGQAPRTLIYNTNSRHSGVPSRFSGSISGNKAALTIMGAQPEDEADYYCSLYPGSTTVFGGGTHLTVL yields OD450 of 3.46
